- Tested on: Klebsiella aerogenes DSM 30053
- PROTOCOL_NOTES: growth (OD595) fold change vs plate DMSO controls (fold change (ratio)); higher = more growth
- MEASUREMENT_SETUP: incubation time: 27 h, anaerobic, 37 °C
Counter-ions that a name gives are not always drawn.
ENDPOINT_NAME: growth
The answer should be a number; do not append a unit.

Here's what some known entries look like.
compound="CCc1cccc2c3c([nH]c12)C(CC)(CC(=O)O)OCC3 (centres undefined) [Etodolac] (20 µM)" value=1.1
compound="CN1CCCC(CC2c3ccccc3Sc3ccccc32)C1 (centres undefined) [Metixene hydrochloride] (20 µM)" value=1.02

Given the entry CC1CNc2c(cccc2S(=O)(=O)N[C@@H](CCCNC(=N)N)C(=O)N2CC[C@@H](C)C[C@@H]2C(=O)O)C1 (some centres undefined) [Argatroban] (20 µM) , report its measured growth.
1.16

And CC(C)C[C@H](NC(=O)[C@@H](O)[C@H](N)Cc1ccccc1)C(=O)O [Ubenimex] (20 µM) ?
0.969

----------
- Test system: Klebsiella aerogenes DSM 30053
- PROTOCOL_NOTES: fold change of Histamine concentration vs plate DMSO controls (fold change (ratio)); higher = more amine produced, active = hit call of the paper (significant change in both replicates, either direction);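 for the amine columns active = adjusted P below 0.05 in both replicates with a change the same way and a mean fold change under 0.8 or over 1.25; inactive = the rest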
- MEASUREMENT_SETUP: incubation time: 27 h, anaerobic, 37 °C
Structures can show the parent of a compound that is named as a salt.
Return exactly one item of 1.0 (active), 0.0 (inactive)

Please review the entries below; each comes with its answer.
molecule="Oc1ccc(C2CNCCc3c2cc(O)c(O)c3Cl)cc1 (configuration not stated) [Fenoldopam] (20 µM)" class=0.0
molecule="CC1(C)S[C@@H]2[C@H](NC(=O)[C@H](N)c3ccccc3)C(=O)N2[C@H]1C(=O)OC1OC(=O)c2ccccc21 (some centres not stated) [Talampicillin hydrochloride] (20 µM)" class=1.0
molecule="CC[C@H]1OC(=O)[C@H](C)[C@@H](O[C@H]2C[C@@](C)(OC)[C@@H](O)[C@H](C)O2)[C@H](C)[C@@H](O[C@@H]2O[C@H](C)C[C@H](N(C)C)[C@H]2O)[C@](C)(O)C[C@@H](C)C(=O)[C@H](C)[C@@H](O)[C@]1(C)O [Erythromycin] (20 µM)" class=0.0
molecule="O=C(N/N=C/c1ccc([N+](=O)[O-])o1)c1ccc(O)cc1 [Nifuroxazide] (20 µM)" class=0.0
molecule="COC(=O)[C@@H]1[C@H]2C[C@H]3c4[nH]c5ccccc5c4CCN3C[C@@H]2CC[C@@H]1O [Yohimbine hydrochloride] (20 µM)" class=0.0

How was CCN1CCC[C@H]1CNC(=O)c1c(O)c(Cl)cc(Cl)c1OC [Raclopride] (20 µM) classified in this test?
0.0

And CC(C(=O)O)c1ccc(CC2CCCC2=O)cc1 (configuration not stated) [Loxoprofen] (20 µM) ?
0.0

----------
- Tested on: Klebsiella aerogenes DSM 30053
- PROTOCOL_NOTES: growth (OD595) fold change vs plate DMSO controls (fold change (ratio)); higher = more growth
- MEASUREMENT_SETUP: incubation time: 27 h, anaerobic, 37 °C
Structures can show the parent of a compound that is named as a salt.
Parameter growth: see the listing below.
The answer should be a number; do not append a unit.

compound="Nc1ccc(S(=O)(=O)Nc2ccccn2)cc1 [Sulfapyridine] (20 µM)" value=1.04
compound="CN(c1nccc(=O)[nH]1)C1CCN(c2nc3ccccc3n2Cc2ccc(F)cc2)CC1 [Mizolastine] (20 µM)" value=1.04
compound="CCCCC[C@H](O)/C=C/[C@H]1[C@H](O)CC(=O)[C@@H]1CCCCCCC(=O)O [Alprostadil] (20 µM)" value=1.01

GET /values?readout=growth&system=Klebsiella aerogenes DSM 30053&item= Cc1ccsc1C(=CCCN1CCC[C@@H](C(=O)O)C1)c1sccc1C [Tiagabine hydrochloride] (20 µM)
1.05

And Cc1ncc([N+](=O)[O-])n1CCO [Metronidazole] (20 µM) ?
1.02

And COc1ccc2cc([C@@H](C)C(=O)O)ccc2c1 [(R) Naproxen sodium salt] (20 µM) ?
1.07

And CCC(=O)O[C@@H](O[P@](=O)(CCCCc1ccccc1)CC(=O)N1C[C@H](C2CCCCC2)C[C@H]1C(=O)O)C(C)C [Fosinopril] (20 µM) ?
1.05

And Cc1ccccc1N1C(=O)c2cc(S(N)(=O)=O)c(Cl)cc2NC1C (stereo not drawn) [Metolazone] (20 µM) ?
1.02

----------
Parameter fold change of Putrescine concentration: see the listing below.
- Test system: Klebsiella aerogenes DSM 30053
- PROTOCOL_NOTES: fold change of Putrescine concentration vs plate DMSO controls (fold change (ratio)); higher = more amine produced, active = hit call of the paper (significant change in both replicates, either direction)
- MEASUREMENT_SETUP: incubation time: 27 h, anaerobic, 37 °C
Structures can show the parent of a compound that is named as a salt.
The answer should be a number; do not append a unit.

compound="CC(C)[C@H]1CC[C@H](C(=O)N[C@H](Cc2ccccc2)C(=O)O)CC1 [Nateglinide] (20 µM)" endpoint_name="fold change of Putrescine concentration" value=1

Given the entry O=C(O)c1cn(-c2ccc(F)cc2)c2cc(N3CCNCC3)c(F)cc2c1=O [Sarafloxacin] (20 µM) , report its measured fold change of Putrescine concentration.
0.651

And C[C@H](CCC(=O)O)[C@H]1CC[C@H]2[C@@H]3[C@@H](O)C[C@@H]4C[C@H](O)CC[C@]4(C)[C@H]3CC[C@]12C [Urosiol] (20 µM) ?
0.961

And CCC(C)(C)c1ccc(CC(C)CN2C[C@@H](C)O[C@@H](C)C2)cc1 (some centres undefined) [Amorolfine hydrochloride] (20 µM) ?
1

----------
- Tested on: Ruminococcus gnavus DSM 108212
- PROTOCOL_NOTES: growth (OD595) fold change vs plate DMSO controls (fold change (ratio)); higher = more growth
- MEASUREMENT_SETUP: incubation time: 27 h, anaerobic, 37 °C
Counter-ions that a name gives are not always drawn.
Parameter growth: see the listing below.
The answer should be a number; do not append a unit.

Here's what some known entries look like.
compound="CCn1cc(C(=O)O)c(=O)c2cc(F)c(N3CCNCC3)nc21 [Enoxacin] (20 µM)" value=1.01
compound="O=C(NCC1CCCCN1)c1cc(OCC(F)(F)F)ccc1OCC(F)(F)F (stereo unspecified) [Flecainide acetate] (20 µM)" value=0.997
compound="OC[C@@H](O)[C@H](O)[C@@H](O)CO [Xylitol] (50 µM)" value=1.12
compound="COc1cc(N)c(Cl)cc1C(=O)NC1CCN(Cc2ccccc2)CC1 [Clebopride maleate] (20 µM)" value=0.875

Given the entry CN(C)CCOC(=O)COc1ccc(Cl)cc1 [Meclofenoxate hydrochloride] (20 µM) , report its measured growth.
0.995

And C[C@H]1[C@H](OC(=O)CCC(=O)O)O[C@@H]2O[C@@]3(C)CC[C@H]4[C@H](C)CC[C@@H]1[C@@]24OO3 [Artesunate] (20 µM) ?
0.931

And CC(C)(Oc1ccc(CCNC(=O)c2ccc(Cl)cc2)cc1)C(=O)O [Bezafibrate] (20 µM) ?
0.854

----------
- Test system: Ruminococcus gnavus DSM 108212
- PROTOCOL_NOTES: fold change of Tryptamine concentration vs plate DMSO controls (fold change (ratio)); higher = more amine produced, active = hit call of the paper (significant change in both replicates, either direction)
- MEASUREMENT_SETUP: incubation time: 27 h, anaerobic, 37 °C
Entry flag: satisfied if fold change of Tryptamine concentration reaches 1; not satisfied if it does not.

compound="CC(=O)Nc1ccc(OCC(O)CNC(C)C)cc1 (stereo not drawn) [Practolol] (20 µM)" class=satisfied
compound="CN[C@H]1CC[C@@H](c2ccc(Cl)c(Cl)c2)c2ccccc21 [Sertraline] (20 µM)" class="not satisfied"

// next entry
API: above_or_equal(metric=fold change of Tryptamine concentration, cutoff=1) for item NCC[C@H](O)C(=O)N[C@@H]1C[C@H](N)[C@@H](O[C@H]2O[C@H](CN)[C@@H](O)[C@H](O)[C@H]2O)[C@H](O)[C@H]1O[C@H]1O[C@H](CO)[C@@H](O)[C@H](N)[C@H]1O [Amikacin hydrate] (20 µM)
not satisfied

----------
Parameter growth: see the listing below.
- System: Ruminococcus gnavus DSM 108212
- PROTOCOL_NOTES: growth (OD595) fold change vs plate DMSO controls (fold change (ratio)); higher = more growth
- MEASUREMENT_SETUP: incubation time: 27 h, anaerobic, 37 °C
Structures can show the parent of a compound that is named as a salt.
The answer should be a number; do not append a unit.

compound="C[C@H]1[C@H](NC(=O)/C(=N\\OC(C)(C)C(=O)O)c2csc(N)n2)C(=O)N1S(=O)(=O)O [Aztreonam] (20 µM)" value=1.04
compound="CCOC(=O)[C@H](CCc1ccccc1)N[C@@H](C)C(=O)N1[C@H](C(=O)O)C[C@@H]2CCC[C@@H]21 [Ramipril] (20 µM)" value=1.19
compound="O=[N+]([O-])c1ccc(O)c2ncccc12 [Nitroxoline] (20 µM)" value=0.97

Given the entry Cc1onc(-c2ccccc2)c1C(=O)N[C@@H]1C(=O)N2[C@@H]1SC(C)(C)[C@@H]2C(=O)O [Oxacillin sodium] (20 µM) , report its measured growth.
0

And CCCCc1nc(Cl)c(CO)n1Cc1ccc(-c2ccccc2-c2nnn[nH]2)cc1 [Losartan] (20 µM) ?
0.99

And CC(=O)/N=c1/sc(S(N)(=O)=O)nn1C [Methazolamide] (20 µM) ?
0.848

And CCC(Cc1c(I)cc(I)c(N)c1I)C(=O)O (stereo not given) [Iopanoic acid] (20 µM) ?
1.05

And CC(=O)Nc1ccc(O)cc1 [Acetaminophen] (20 µM) ?
0.921

And CC(=O)OCC(=O)[C@@]1(OC(C)=O)[C@@H](C)C[C@H]2[C@@H]3C[C@H](F)C4=CC(=O)C=C[C@]4(C)[C@@]3(F)[C@@H](O)C[C@@]21C [Diflorasone Diacetate] (20 µM) ?
0.993

And Cc1cccc(C)c1OCC(=O)N[C@@H](Cc1ccccc1)[C@@H](O)C[C@H](Cc1ccccc1)NC(=O)[C@H](C(C)C)N1CCCNC1=O [Lopinavir] (20 µM) ?
1.31

And CC(C)N1CCN(c2ccc(OCC3COC(Cn4cncn4)(c4ccc(Cl)cc4Cl)O3)cc2)CC1 (stereo not given) [Terconazole] (20 µM) ?
1

And Cc1ncc(C[n+]2csc(CCO)c2C)c(N)n1 [Thiamine hydrochloride] (20 µM) ?
1.14

And Clc1ccccc1C(c1ccccc1)(c1ccccc1)n1ccnc1 [Clotrimazole] (20 µM) ?
0.513

And CC(/C=C1\SC(=S)N(CC(=O)O)C1=O)=C\c1ccccc1 [Epalrestat] (20 µM) ?
0.896

And CC(=O)[C@H]1CC[C@H]2[C@@H]3CC=C4C[C@@H](O)CC[C@]4(C)[C@H]3CC[C@]12C [Pregnenolone] (20 µM) ?
0.993

And C[N+]1(C)CCC(=C(c2ccccc2)c2ccccc2)CC1 [Diphemanil methylsulfate] (20 µM) ?
0.984

And CCCCC(C)(O)C/C=C/[C@H]1[C@H](O)CC(=O)[C@@H]1CCCCCCC(=O)OC (mixture of isomers) [Misoprostol] (20 µM) ?
1.19

And CC(=O)[C@@]12O[C@](C)(c3ccccc3)O[C@@H]1C[C@H]1[C@@H]3CCC4=CC(=O)CC[C@]4(C)[C@H]3CC[C@@]12C [Algestone acetophenide] (20 µM) ?
1.13

And CCCCC(CC)CN1C(=O)[C@@H]2[C@H](C1=O)[C@@H]1C=C[C@H]2C1 (mixture of isomers) (20 µM) ?
1.02

And CCC(=O)O[C@@H](O[P@](=O)(CCCCc1ccccc1)CC(=O)N1C[C@H](C2CCCCC2)C[C@H]1C(=O)O)C(C)C [Fosinopril] (20 µM) ?
1.08

And CCCCC1=NC2(CCCC2)C(=O)N1Cc1ccc(-c2ccccc2-c2nnn[nH]2)cc1 [Irbesartan] (20 µM) ?
1.21

And CC[C@H](C)C(=O)O[C@H]1CCC=C2C=C[C@H](C)[C@H](CC[C@@H]3C[C@@H](O)CC(=O)O3)[C@H]21 [Mevastatin] (20 µM) ?
1.02
